Molecular target: T1, human GIP receptor (glucose-dependent insulinotropic peptide receptor, GIPR) (human, UniProt P48546 22-466)
T1 sequence (looked up): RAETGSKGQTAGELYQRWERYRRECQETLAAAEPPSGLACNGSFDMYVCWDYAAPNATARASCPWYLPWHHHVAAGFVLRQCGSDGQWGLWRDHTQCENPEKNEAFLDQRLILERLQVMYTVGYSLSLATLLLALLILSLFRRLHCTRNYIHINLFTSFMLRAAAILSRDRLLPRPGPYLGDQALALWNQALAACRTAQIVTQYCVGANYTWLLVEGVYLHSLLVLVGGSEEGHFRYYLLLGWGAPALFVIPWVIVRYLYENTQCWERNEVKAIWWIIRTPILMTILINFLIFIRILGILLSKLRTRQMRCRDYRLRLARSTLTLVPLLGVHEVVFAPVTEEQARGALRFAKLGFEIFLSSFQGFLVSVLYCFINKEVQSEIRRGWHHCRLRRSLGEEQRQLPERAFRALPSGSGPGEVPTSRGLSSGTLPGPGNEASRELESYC
Experiment: cell-based or functional assay
Non-standard residues stand in square brackets, D forms with d. No end group written: not given here. Aib = CC(C)(N)C(=O)O
reported.property: EC50(pM), cell agonistic activity (cAMP, HTRF)
Give a bare numeral; the unit pM is implied.

Some entries whose results are on file:
[
  {
    "binder": "Y[Aib]EGTFISDYSIALDRLHQQDFVNWLLAQKG (also: long-acting conjugating component, site and structure not given here) [Peptide 18 (long-acting conjugate of GIP analog, Seq ID. 18)]",
    "numeric.result": 21.1
  },
  {
    "binder": "Y[Aib]EGTFISDYSIALDK(18‑(((23R)-23-carboxyl-2,11,20-trioxo-10,19-diaza-4,7,13,16-tetraoxatricosyl-23-yl)amino)‑18‑oxooctadecanoic acid acetyl)IHQEDFVNWLLAQRG",
    "numeric.result": 7.24
  },
  {
    "binder": "Y[Aib]EGTFISDYSIALDRIHQEDFVKWLLAQRG (also: long-acting conjugating component, site and structure not given here) [Peptide 11 (long-acting conjugate of GIP analog, Seq ID. 11)]",
    "numeric.result": 3.5
  },
  {
    "binder": "Y[Aib]EGTFISDYSIALDK(18‑(((23R)-23-carboxyl-2,11,20-trioxo-10,19-diaza-4,7,13,16-tetraoxatricosyl-23-yl)amino)‑18‑oxooctadecanoic acid acetyl)IHQQDFVNWLLAQRG",
    "numeric.result": 6.66
  }
]

Input: Report EC50(pM), cell agonistic activity (cAMP, HTRF), nothing else, for this binder: Y[Aib]EGTFISDYSIALDRLHQEDFVKWLLAQRG (also: long-acting conjugating component, site and structure not given here) [Peptide 15 (long-acting conjugate of GIP analog, Seq ID. 15)]
Output: 9.14

Input: Report EC50(pM), cell agonistic activity (cAMP, HTRF), nothing else, for this binder: Y[Aib]EGTFISDYSIALDRLHQQDFVKWLLAQRG (also: long-acting conjugating component, site and structure not given here) [Peptide 17 (long-acting conjugate of GIP analog, Seq ID. 17)]
Output: 25.7
